System: Nonstructural protein 5A (Hepatitis C virus), Q5L478 [Y93C]
Sequence (whole entry): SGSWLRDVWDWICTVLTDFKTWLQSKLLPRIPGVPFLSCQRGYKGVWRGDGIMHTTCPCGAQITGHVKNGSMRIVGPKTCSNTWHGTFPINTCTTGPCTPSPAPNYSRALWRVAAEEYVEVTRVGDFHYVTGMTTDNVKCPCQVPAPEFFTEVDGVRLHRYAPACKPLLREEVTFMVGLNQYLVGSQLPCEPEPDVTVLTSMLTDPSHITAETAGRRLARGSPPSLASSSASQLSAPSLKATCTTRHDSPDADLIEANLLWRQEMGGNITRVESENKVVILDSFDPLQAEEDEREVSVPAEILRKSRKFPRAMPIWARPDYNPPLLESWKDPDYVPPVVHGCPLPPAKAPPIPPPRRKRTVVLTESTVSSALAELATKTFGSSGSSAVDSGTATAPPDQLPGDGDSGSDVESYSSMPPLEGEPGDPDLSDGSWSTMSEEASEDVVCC
Test: Inhibition of NS5A Y93C mutant in HuH7 cell infected HCV genotype 1a H77 assessed as decrease in viral replication after 4 days by luciferase reporter gene assay relative to wild type protein
Details: Hepatitis C virus (isolate H77)
The entries below come with measured fold change (FC) values attached.

smiles-notation	target	sign-qualifier	fold change (FC)
COC(=O)N[C@H](C(=O)N1CCC[C@H]1c1nc2cc([C@H]3CC[C@H](c4cc5nc([C@@H]6CCCN6C(=O)[C@@H](NC(=O)OC)[C@@H](C)OC)[nH]c5cc4F)N3c3cc(F)c(N4CCC(c5ccc(F)cc5)CC4)c(F)c3)c(F)cc2[nH]1)[C@@H](C)OC	Nonstructural protein 5A (Hepatitis C virus), Q5L478 [Y93C]	=	1.7
COC(=O)N[C@H](C(=O)N1CCC[C@H]1c1nc2ccc([C@H]3CC[C@H](c4ccc5nc([C@@H]6CCCN6C(=O)[C@@H](NC(=O)OC)C(C)C)[nH]c5c4)N3c3ccc(C4CCCCC4)cc3)cc2[nH]1)C(C)C	Nonstructural protein 5A (Hepatitis C virus), Q5L478 [Y93C]	>	30
COC(=O)N[C@H](C(=O)N1CCC[C@H]1c1nc2cc(F)c([C@H]3CC[C@H](c4cc5[nH]c([C@@H]6CCCN6C(=O)[C@@H](NC(=O)OC)[C@@H](C)OC)nc5cc4F)N3c3cc(F)c(N4CCC(c5ccccc5)CC4)c(F)c3)cc2[nH]1)[C@@H](C)OC	Nonstructural protein 5A (Hepatitis C virus), Q5L478 [Y93C]	=	1
COC(=O)N[C@H](C(=O)N1CCC[C@H]1C(=O)Nc1ccc([C@@H]2CC[C@@H](c3ccc(NC(=O)[C@@H]4CCCN4C(=O)[C@@H](NC(=O)OC)C(C)C)cc3)N2c2ccc(C(C)(C)C)cc2)cc1)C(C)C	Nonstructural protein 5A (Hepatitis C virus), Q5L478 [Y93C]	=	1680
COC(=O)N[C@H](C(=O)N1CCC[C@H]1c1nc2cc([C@H]3CC[C@H](c4ccc5[nH]c([C@@H]6CCCN6C(=O)[C@@H](NC(=O)OC)C(C)C)nc5c4)N3c3cc(F)c(N4CCCCC4)c(F)c3)ccc2[nH]1)C(C)C	Nonstructural protein 5A (Hepatitis C virus), Q5L478 [Y93C]	=	9
COC(=O)N[C@H](C(=O)N1CCC[C@H]1c1nc2ccc([C@H]3CC[C@H](c4ccc5nc([C@@H]6CCCN6C(=O)[C@@H](NC(=O)OC)C(C)C)[nH]c5c4)N3c3ccc(-c4ccccc4)cc3)cc2[nH]1)C(C)C	Nonstructural protein 5A (Hepatitis C virus), Q5L478 [Y93C]	=	24
COC(=O)N[C@H](C(=O)N1CCC[C@H]1c1nc2ccc([C@H]3CC[C@H](c4ccc5nc([C@@H]6CCCN6C(=O)[C@@H](NC(=O)OC)C(C)C)[nH]c5c4)N3c3ccc(Cl)cc3)cc2[nH]1)C(C)C	Nonstructural protein 5A (Hepatitis C virus), Q5L478 [Y93C]	=	22

###

Test: Solubility of the compound by CLND method
Type: physicochemical
The entries below come with measured solubility kinetic values attached.
value-kind: solubility kinetic (µM)

smiles-notation	value-kind	result
COC(=O)N[C@H](C(=O)N1CCC[C@H]1c1nc2cc([C@H]3CC[C@H](c4ccc5[nH]c([C@@H]6CCCN6C(=O)[C@@H](NC(=O)OC)C(C)C)nc5c4)N3c3cc(F)c(N4CCCCC4)c(F)c3)ccc2[nH]1)C(C)C	solubility kinetic	0.7
COC(=O)N[C@H](C(=O)N1CCC[C@H]1c1nc2ccc([C@H]3CC[C@H](c4ccc5nc([C@@H]6CCCN6C(=O)[C@@H](NC(=O)OC)C(C)C)[nH]c5c4)N3c3ccc(N4CCCCC4)c(F)c3)cc2[nH]1)C(C)C	solubility kinetic	2.5
COC(=O)N[C@H](C(=O)N1CCC[C@H]1c1nc2ccc([C@H]3CC[C@H](c4ccc5nc([C@@H]6CCCN6C(=O)[C@@H](NC(=O)OC)C(C)C)[nH]c5c4)N3c3ccc(N4CCOCC4)cc3)cc2[nH]1)C(C)C	solubility kinetic	14.2

###

Assay: AUClast in dog at 1 mg/kg, iv by LC-MS method
Format: ADME, organism-based, Canis lupus familiaris
Set-up: dose 1 mg/kg, route intravenous, time 0 - last
Conditions: in vivo

compound	endpoint-unit	AUC(0-t)
COC(=O)N[C@H](C(=O)N1CCC[C@H]1c1nc2cc([C@H]3CC[C@H](c4cc5nc([C@@H]6CCCN6C(=O)[C@@H](NC(=O)OC)[C@@H](C)OC)[nH]c5cc4F)N3c3cc(F)c(N4CCC(c5ccc(F)cc5)CC4)c(F)c3)c(F)cc2[nH]1)[C@@H](C)OC [PIBRENTASVIR]	ng·h/mL	10600

###

Assay: Lipophilicity, log D of the compound by HPLC method
Assay type: physicochemical
value-kind: logD

smiles-notation	value-kind	result
COC(=O)N[C@H](C(=O)N1CCC[C@H]1c1nc2ccc([C@H]3CC[C@H](c4ccc5nc([C@@H]6CCCN6C(=O)[C@@H](NC(=O)OC)C(C)C)[nH]c5c4)N3c3ccc(C(C)(C)C)cc3)cc2[nH]1)C(C)C	logD	5.3
COC(=O)N[C@H](C(=O)N1CCC[C@H]1c1nc2cc([C@H]3CC[C@H](c4ccc5[nH]c([C@@H]6CCCN6C(=O)[C@@H](NC(=O)OC)C(C)C)nc5c4)N3c3cc(F)c(N4CCC(c5ccc(F)cc5)CC4)c(F)c3)ccc2[nH]1)C(C)C	logD	5.8
COC(=O)N[C@H](C(=O)N1CCC[C@H]1c1nc2ccc([C@H]3CC[C@H](c4ccc5nc([C@@H]6CCCN6C(=O)[C@@H](NC(=O)OC)C(C)C)[nH]c5c4)N3c3ccc(N4CCCCC4)c(F)c3)cc2[nH]1)C(C)C	logD	4.7
COC(=O)N[C@H](C(=O)N1CCC[C@H]1c1nc2ccc([C@H]3CC[C@H](c4ccc5nc([C@@H]6CCCN6C(=O)[C@@H](NC(=O)OC)C(C)C)[nH]c5c4)N3c3ccc(N4CCOCC4)cc3)cc2[nH]1)C(C)C	logD	3.2
COC(=O)N[C@H](C(=O)N1CCC[C@H]1c1nc2ccc([C@H]3CC[C@H](c4ccc5nc([C@@H]6CCCN6C(=O)[C@@H](NC(=O)OC)C(C)C)[nH]c5c4)N3c3ccc(N4CCC(c5ccccc5)CC4)cc3)cc2[nH]1)C(C)C	logD	5.4
COC(=O)N[C@H](C(=O)N1CCC[C@H]1c1nc2ccc([C@H]3CC[C@H](c4ccc5nc([C@@H]6CCCN6C(=O)[C@@H](NC(=O)OC)C(C)C)[nH]c5c4)N3c3cc(Cl)c(N4CCCCC4)c(Cl)c3)cc2[nH]1)C(C)C	logD	5.9

###

Assay: AUClast in monkey at 1 mg/kg, iv by LC-MS method
Type: ADME, organism-based, Macaca mulatta
Parameters: dose 1 mg/kg, time 0 - last, route intravenous
Conditions: rhesus monkey, in vivo

compound	AUC(0-t) (ng·h/mL)
COC(=O)N[C@H](C(=O)N1CCC[C@H]1c1nc2cc([C@H]3CC[C@H](c4cc5nc([C@@H]6CCCN6C(=O)[C@@H](NC(=O)OC)[C@@H](C)OC)[nH]c5cc4F)N3c3cc(F)c(N4CCC(c5ccc(F)cc5)CC4)c(F)c3)c(F)cc2[nH]1)[C@@H](C)OC [PIBRENTASVIR]	6470

###

Target: Nonstructural protein 5A (Hepatitis C virus)
Sequence (whole entry): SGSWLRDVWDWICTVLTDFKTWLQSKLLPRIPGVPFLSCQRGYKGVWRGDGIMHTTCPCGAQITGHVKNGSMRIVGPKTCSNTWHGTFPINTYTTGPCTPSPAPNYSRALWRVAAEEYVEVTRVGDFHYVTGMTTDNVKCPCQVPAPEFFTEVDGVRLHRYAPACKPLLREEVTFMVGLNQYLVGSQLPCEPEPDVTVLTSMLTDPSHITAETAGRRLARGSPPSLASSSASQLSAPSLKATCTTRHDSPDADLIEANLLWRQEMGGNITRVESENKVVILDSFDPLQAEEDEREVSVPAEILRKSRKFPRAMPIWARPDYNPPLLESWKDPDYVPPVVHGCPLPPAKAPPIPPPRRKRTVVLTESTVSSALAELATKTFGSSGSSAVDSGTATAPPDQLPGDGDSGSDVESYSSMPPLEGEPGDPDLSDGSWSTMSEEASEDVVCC
Test: Inhibition of NS5A M28T mutant in HuH7 cell infected HCV genotype 1a H77 assessed as decrease in viral replication after 4 days by luciferase reporter gene assay relative to wild type protein
Details: Hepatitis C virus (isolate H77)
The entries below come with measured fold change (FC) values attached.
value-kind: fold change (FC)

smiles-notation	value-kind	sign-qualifier	result
COC(=O)N[C@H](C(=O)N1CCC[C@H]1c1nc2ccc([C@H]3CC[C@H](c4ccc5nc([C@@H]6CCCN6C(=O)[C@@H](NC(=O)OC)C(C)C)[nH]c5c4)N3c3cc(F)c(N4CCC(c5ccccc5)CC4)c(F)c3)cc2[nH]1)C(C)C	fold change (FC)	=	3
COC(=O)N[C@H](C(=O)N1CCC[C@H]1c1nc2ccc([C@H]3CC[C@H](c4ccc5nc([C@@H]6CCCN6C(=O)[C@@H](NC(=O)OC)C(C)C)[nH]c5c4)N3c3cc(F)c(N4CCC(c5ccc(F)cc5)CC4)c(F)c3)cc2[nH]1)C(C)C	fold change (FC)	=	2
COC(=O)N[C@H](C(=O)N1CCC[C@H]1c1nc2cc(F)c([C@H]3CC[C@H](c4cc5[nH]c([C@@H]6CCCN6C(=O)[C@@H](NC(=O)OC)C(C)C)nc5cc4F)N3c3cc(F)c(N4CCC(c5ccccc5)CC4)c(F)c3)cc2[nH]1)C(C)C	fold change (FC)	=	1
COC(=O)N[C@H](C(=O)N1CCC[C@H]1C(=O)Nc1ccc([C@@H]2CC[C@@H](c3ccc(NC(=O)[C@@H]4CCCN4C(=O)[C@@H](NC(=O)OC)C(C)C)cc3)N2c2ccc(C(C)(C)C)cc2)cc1)C(C)C	fold change (FC)	=	8960
COC(=O)N[C@H](C(=O)N1CCC[C@H]1c1nc2ccc([C@H]3CC[C@H](c4ccc5nc([C@@H]6CCCN6C(=O)[C@@H](NC(=O)OC)C(C)C)[nH]c5c4)N3c3ccc(C4CCCCC4)cc3)cc2[nH]1)C(C)C	fold change (FC)	>	17
COC(=O)N[C@H](C(=O)N1CCC[C@H]1c1nc2cc(F)c([C@H]3CC[C@H](c4cc5[nH]c([C@@H]6CCCN6C(=O)[C@@H](NC(=O)OC)[C@@H](C)OC)nc5cc4F)N3c3cc(F)c(N4CCC(c5ccccc5)CC4)c(F)c3)cc2[nH]1)[C@@H](C)OC	fold change (FC)	=	1
COC(=O)N[C@H](C(=O)N1CCC[C@H]1c1nc2ccc([C@H]3CC[C@H](c4ccc5nc([C@@H]6CCCN6C(=O)[C@@H](NC(=O)OC)C(C)C)[nH]c5c4)N3c3ccc(C(C)(C)C)cc3)cc2[nH]1)C(C)C	fold change (FC)	=	4
COC(=O)N[C@H](C(=O)N1CCC[C@H]1c1nc2ccc([C@H]3CC[C@H](c4ccc5nc([C@@H]6CCCN6C(=O)[C@@H](NC(=O)OC)C(C)C)[nH]c5c4)N3c3ccc(Cl)cc3)cc2[nH]1)C(C)C	fold change (FC)	=	28
COC(=O)N[C@H](C(=O)N1CCC[C@H]1c1nc2cc([C@H]3CC[C@H](c4ccc5[nH]c([C@@H]6CCCN6C(=O)[C@@H](NC(=O)OC)C(C)C)nc5c4)N3c3cc(F)c(N4CCCCC4)c(F)c3)ccc2[nH]1)C(C)C	fold change (FC)	=	5
COC(=O)N[C@H](C(=O)N1CCC[C@H]1c1nc2cc([C@H]3CC[C@H](c4cc5nc([C@@H]6CCCN6C(=O)[C@@H](NC(=O)OC)[C@@H](C)OC)[nH]c5cc4F)N3c3cc(F)c(N4CCC(c5ccc(F)cc5)CC4)c(F)c3)c(F)cc2[nH]1)[C@@H](C)OC	fold change (FC)	=	2.1
